The reported measurements were obtained from patent US10266482B2.

test_readout: melting point

Lookup: Please report the recorded melting point for COc1ccc(N)c(C(=O)CCNC(=O)c2ccc3ccccc3c2)c1 [Compound 6] .
Found: 113.5 to 114.5 °C

Lab note: next molecule to report on.
Lookup: Please report the recorded melting point for COc1ccc(N)c(C(=O)CCNC(=O)c2ccccn2)c1 [Compound 7] .
Found: 114 to 115.5 °C

###

# melting point values compiled below

Lookup: Please report the recorded melting point for CC(=O)NCCC(=O)c1cc(Cl)ccc1N [Compound 8] .
Found: 121 to 122 °C

Lookup: Please report the recorded melting point for COc1ccc(NC(C)=O)c(C(=O)CCNC(C)=O)c1 [Compound 13] .
Found: 143 to 145 °C

Lab note: next compound to report on.
Lookup: Please report the recorded melting point for COc1ccc(N)c(C(=O)CCNC(=O)c2ccccc2OC)c1 [Compound 5] .
Found: 134.5 to 136 °C
